Biological target: T1, ubiquitin phosphorylated at serine-65 (pUb) (UniProt P0CG48 1-76, phosphoserine at 65)
T1 construct: ubiquitin, the cut product of a ubiquitin precursor, phosphorylated at S65; Uniformly 15N-labelled for NMR; In solution two conformers in slow, pH-dependent exchange: native-like pUb^nat and alternate pUb^alt; both are this one molecule; also called S65 pUb; phosphorylated Ub
Experiment: NMR titration; 15N-labeled Ub variant titrated with unlabeled UBA; amide CSPs in 1H-15N spectra, global fit to a single-site binding model; 23 °C, 20 mM sodium phosphate pH 6.8, 0.02% NaN3, 7% D2O
Conditions: both partners purified
Observed Property: Kd (µM)

| Binder | Observed Property | Display Unit | Obs Value |
| --- | --- | --- | --- |
| YRFQQQLEQLSAMGFLNREANLQALIATGGDINAAIERLLGS (domain or fragment, UniProt Q9UMX0 545-586, looked up, UBA domain of human ubiquilin-1 (hPLIC1) with V545Y; V545Y was introduced to allow concentration determination by absorbance at 280 nm; Unlabelled in the titrations; also called ubiquilin-1 UBA) [ubiquitin-associated domain (UBA) of human ubiquilin-1/hPLIC1, V545Y] | Kd | µM | 8 |

These entries and their values trace back to paper PMC5805711.
